target under test: T1, Sortilin hSORTECDBAP (human, UniProt Q99523 78-755)
T1 sequence: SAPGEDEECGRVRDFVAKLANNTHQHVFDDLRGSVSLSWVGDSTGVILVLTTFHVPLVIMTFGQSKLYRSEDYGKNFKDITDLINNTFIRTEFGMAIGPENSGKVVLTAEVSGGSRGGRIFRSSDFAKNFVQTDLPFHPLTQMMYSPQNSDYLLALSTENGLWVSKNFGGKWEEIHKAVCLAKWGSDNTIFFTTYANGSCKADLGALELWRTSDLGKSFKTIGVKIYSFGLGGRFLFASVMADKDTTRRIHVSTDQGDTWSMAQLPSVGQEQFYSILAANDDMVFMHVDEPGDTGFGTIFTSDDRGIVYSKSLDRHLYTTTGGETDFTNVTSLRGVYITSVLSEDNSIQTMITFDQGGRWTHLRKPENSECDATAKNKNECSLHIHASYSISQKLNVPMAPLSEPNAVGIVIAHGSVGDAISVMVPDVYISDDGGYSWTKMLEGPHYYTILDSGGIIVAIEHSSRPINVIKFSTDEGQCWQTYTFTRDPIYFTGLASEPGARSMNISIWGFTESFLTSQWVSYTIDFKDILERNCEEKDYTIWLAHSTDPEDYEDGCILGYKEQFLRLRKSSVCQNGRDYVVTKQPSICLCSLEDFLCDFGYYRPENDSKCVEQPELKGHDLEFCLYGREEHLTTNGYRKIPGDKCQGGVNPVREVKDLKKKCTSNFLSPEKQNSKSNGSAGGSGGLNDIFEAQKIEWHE
procedure text: BLI (Octet384RED)
Recorded EC50, one value per entry.
# include the unit after the value

[
  {
    "binder": "IgG1-6003-408 (antibody, V domains shown, also called Antibody 6003-408) VH: EVQLVESGGGLVKPGGSLRLSCAASGFTFSSYSMNWVRQAPGKGLEWVSSISSSSSYIYYADSVKGRFTISRDNAKNSLYLQMNSLRAEDTAVYYCARRRIAAAGTGYGAFDIWGQGTMVTVSS VL: ARQLTQSPSSLSASVGDRVTITCRASQGITSALAWYQQKPGKVPKLLIYDASSLESGVPSRFSGSGSGTDFTLTISSLQPEDFATYYCQQFNGYPMFSFGQGTKLEII",
    "readout name": "EC50",
    "observed measurement": "1.93 ng/mL"
  }
]

Next:
Exam item: Could you share which EC50 value was measured for Antibody 6003-030 (antibody, human IgG1, V domains shown, Human antibody (HuMab); also called antibody 30; mAb30) VH: EVQVLESGGGLVQPGGSLRLSCAASGFTFSSYAMSWVRQAPGKGLEWVSTISGRGGNTYYADSVKGRFTISRDNSKNTLYLQMDSLRAEDTAVYYCAIIPSLYWYFDLWGRGTLVTVSS VL: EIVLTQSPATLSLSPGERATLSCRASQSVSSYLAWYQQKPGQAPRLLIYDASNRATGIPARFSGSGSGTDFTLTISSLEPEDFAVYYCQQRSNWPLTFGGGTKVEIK ?
Marked response: 0.89 ng/mL
